The reported measurements were obtained from PubChem BioAssay (NCI).

# Tested on: LOX IMVI melanoma
# Assay Procedure: NCI-60 one-dose screen, 48 h (100 = growth as untreated, 0 = no growth, -100 = all killed)
# Assay Setup: 10 µM unless noted
About 83,000 compounds went through this panel and 20% of them were active in at least one assay; those are over-represented in the sample as a whole. Activity calls are given as the source filed them. The calls were made as follows: active = growth percent below 10; inactive = the rest.
Readout Name: growth

Reported growth for N#Cc1c(-c2ccccc2)cc(-c2ccccc2)n(CCCC(=O)O)c1=O : what is it? 95.4% (inactive)

Reported growth for O=C(CSc1nnc(-c2cc(-c3ccccc3)nc3ccccc23)o1)c1ccc(Br)cc1 : what is it? 101% (inactive)

Reported growth for C1=C(Cc2ccccc2)n2cnc3ncnc(c32)S1 : what is it? 9.31% (active)

Reported growth for O=C(O)C1C(c2ccccc2)c2ccccc2C(O)C1CO (stereo not given) : what is it? 103% (inactive)

Reported growth for CC(=O)N1N=C(c2ccc3c(c2)OCO3)CC1c1c(C)nn(-c2ccccc2)c1N(C)Cc1ccccc1 (stereo not given) : what is it? 86.5% (inactive)

Reported growth for COCCCNS(=O)(=O)c1ncnc2nc[nH]c12 : what is it? 111% (inactive)

Reported growth for COc1ccc(/C=C2/SC(=Nc3c(C)nn(-c4ccccc4)c3N)NC2=O)cc1 : what is it? 33.1% (inactive)

Reported growth for CNNc1ncnc2c1cnn2-c1ccc(S(N)(=O)=O)cc1 : what is it? 97.5% (inactive)

Reported growth for C[C@]12CCC(=O)C=C1CCC1C2[C@@H](O)C[C@@]2(C)C1CC[C@]2(O)C(=O)COC(=O)CCC(=O)O (stereo not given in full) : what is it? 98.5% (inactive)

Reported growth for CC1CN(/N=C/c2ccc([N+](=O)[O-])o2)C(=N)O1 (stereo not given) : what is it? 95.4% (inactive)
